Cited source: ChEMBL document CHEMBL4043066

TARGET_SYSTEM: Bromodomain-containing protein 4 (Homo sapiens, UniProt O60885)
ASSAY_NAME: Inhibition of recombinant human N-terminal His6-tagged BRD4 expressed in Escherichia coli BL21(DE3) cells using biotinylated histone H4 peptide as substrate after 60 mins by AlphaScreen assay
RESULT_TYPE: IC50 (µM)
Dear colleague, please return just the value in µM, with no unit written.

// recorded IC50 for Oc1ccc(-c2nc(-c3ccncc3)c(-c3ccc(F)cc3)[nH]2)cc1 : 3.4

====

Entries and their IC50
TARGET_SYSTEM: Bromodomain-containing protein 4 (Homo sapiens, UniProt O60885)
ASSAY_NAME: Inhibition of His-epitope tagged BRD4 bromodomain 1 (44 to 168 residues) (unknown origin) using biotinylated histone H4 as substrate after 1 hr by AlphaScreen assay

> print(dat)
                                   molecule                             target.system    result
1  CC(=O)N1c2ccc(-c3cnn(C4CC4)c3)cc2C(OC[C@H]2CC2(F)F)C[C@H]1C (some centres not stated)  Bromodomain-containing protein 4 (Homo sapiens, UniProt O60885)  < 100 nM

Please look at the following molecule next.
// recorded IC50 for CC(=O)N1c2ccc(-c3cnn([C@H]4CCNC[C@H]4F)c3)c(OCC3CCC3)c2CC[C@H]1C : < 100 nM
